Cited source: PubChem BioAssay (NCI)

# Tested on: KM12 colon
# run description: NCI tumour cell line growth inhibition, 48 h
measured endpoint: TGI

molecule	TGI
COc1ccc2[nH]c3c(cnn4cnnc34)c2c1	> 100 µM
O=C(Oc1ccccc1)c1cc(O)c(O)c(O)c1	> 100 µM
COc1cc2c(cc1OCCCCCOc1cc(-c3ccc(F)cc3)nc(C)n1)N=C[C@@H]1CCCN1C2=O	> 73.6 µM
COc1ccc(CSCc2cc(OC)c(OC)c(OC)c2)cc1	> 100 µM
CCN(CC)CCC(=O)Nc1cccc2c1C(=O)c1c(c(O)c3ccccc3c1O)C2=O	> 100 µM

// query Tell me reported TGI for COc1c(O)cc(/C=C/c2cc(O)cc3c2[C@@]2(C(=O)O3)c3c(O)cc(O)cc3OC2c2cccc(O)c2)cc1O (some centres not stated) , tested with KM12 colon.
// result > 100 µM

// query Next molecule: OCCN(CO)CN(CN(CO)CCO)c1nc(N(CN(CO)CCO)CN(CO)CCO)nc(N(CN(CO)CCO)CN(CO)CCO)n1
// result 2.8 ng/mL

###

# Test system: DU-145 prostate
# run description: NCI tumour cell line growth inhibition, 48 h
measured endpoint: TGI

Recorded results for 2 compounds are shown here.
compound	TGI
CC(=O)OCC(OC(C)=O)C(OC(C)=O)C(/C=N/N(C(C)=O)S(=O)(=O)c1ccc(/C=C2\NC(=O)NC2=O)cc1)OC(C)=O (stereo not drawn)	> 100 µM
COc1nccc(-c2c(-c3ccc(F)cc3)ncn2C2CCC(O)CC2)n1 (stereo not drawn)	> 100 µM

// query Bench note: what TGI did Cc1ccc2c(c1)C(C1Cc3c(C)cccc3C1=O)OC2=O (stereo not drawn) show?
// result > 100 µM

###

# Tested on: SNB-19 CNS
# run description: NCI tumour cell line growth inhibition, 48 h
measured endpoint: TGI

Illustrative cases are given below, each with its answer.
smiles record	TGI
CSc1nc(C)cc(Nc2ccc(O)c(CN3CCCCC3)c2)n1	> 100 µM
CC[C@@]1(O)C(=O)NCc2c1cc1n(c2=O)Cc2cc3cc4c(cc3nc2-1)OCO4	> 61.5 µM

Switching to the query record.
// query // fetch SNB-19 CNS TGI for O=C(CC(=O)Nc1ccc(Cl)cc1)NNCC(=O)Nc1nc(-c2ccccc2)cs1
// result > 100 µM

###

# System: DMS 114 small cell lung
# run description: NCI tumour cell line growth inhibition, 48 h
The following compounds are listed with their measured TGI values.

compound	measured target	TGI
CCOC(=O)/C(C#N)=C(O)/C(=C/c1ccccc1Cl)NC(=O)c1ccccc1	DMS 114 small cell lung	> 100 µM
COc1ccc(CCN2CCC(C#N)(c3ccc(OC)c(OC)c3)CC2)cc1OC	DMS 114 small cell lung	> 100 µM
COc1ccc(C2(CN(C)C)COc3cc(OC)c(OC)cc3C2=O)cc1OC (stereo not drawn)	DMS 114 small cell lung	78.3 µM
Cc1ccccc1C(C#N)/C(=N/NC(=O)c1cc2ccccc2cc1O)C(=O)Nc1cccc(Cl)c1 (stereo not drawn)	DMS 114 small cell lung	51.8 µM
O=S(=O)(O)C(F)(F)C(F)(F)C(F)(F)C(F)(F)F	DMS 114 small cell lung	> 100 µM
Nc1ccc(N=Nc2ccc(/C=C/c3ccc(N=Nc4ccc(N)c5ccc(S(=O)(=O)O)cc45)cc3S(=O)(=O)O)c(S(=O)(=O)O)c2)c2cc(S(=O)(=O)O)ccc12	DMS 114 small cell lung	> 100 µM
O=C1C(NCCO)=C(N2CC2)C(=O)C(NCCO)=C1N1CC1	DMS 114 small cell lung	> 50.9 µM

Then there is this compound:
// query Recall the recorded TGI for C=CCOc1cc2c(cc1C(C)c1ccc(OC)cc1)OCO2 (stereo not drawn) with DMS 114 small cell lung and state it.
// result 0.838 µM

###

# Tested on: DLD-1 colon
# run description: NCI tumour cell line growth inhibition, 48 h
The following compounds are shown together with reported TGI values.

Below, 5 compounds whose answers are already recorded.
compound	measured target	TGI
Cc1cccc(C(C)(C)C)c1NC(=O)CC1C(=O)Nc2ccccc2S1=O (stereo unspecified)	DLD-1 colon	> 100 µM
Clc1ccc(C2=Nc3ccccc3SC(c3ccc(Cl)c(Cl)c3)C2)c(Cl)c1 (stereo unspecified)	DLD-1 colon	25.6 µM
CCCOc1ccc(/C=C/c2cc(OC)c(OC)c(OC)c2)cc1	DLD-1 colon	35.7 µM
CCOC(=O)/C(C#N)=C(O)/C(=C/c1ccccc1Cl)NC(=O)c1ccccc1	DLD-1 colon	> 100 µM
CC(=O)/C=C1/c2ccccc2N(C(C)=O)C1O (stereo unspecified)	DLD-1 colon	> 100 µM

// query Query (compound): Nc1ccc(N=Nc2ccc(/C=C/c3ccc(N=Nc4ccc(N)c5ccc(S(=O)(=O)O)cc45)cc3S(=O)(=O)O)c(S(=O)(=O)O)c2)c2cc(S(=O)(=O)O)ccc12 ; field requested: TGI
// result > 100 µM

###

Collected GI50 values appear next to each entry.
# Tested on: NCI/ADR-RES ovarian
# run description: NCI tumour cell line growth inhibition, 48 h

Consider the worked cases shown below.
molecule	GI50
N#Cc1nc(-c2cccc(Br)c2)cc(-c2ccc(Nc3nc(N4CCCCC4)nc(N4CCCCC4)n3)cc2)c1N	3.33 µM
COc1ccc(/C=C/C(=O)c2ccc(Nc3ncnc4ccccc34)cc2)cc1OC	3.82 µM
CCN(CC)CCC(=O)Nc1cccc2c1C(=O)c1c(c(O)c3ccccc3c1O)C2=O	3.94 µM

// query Reported GI50 for O=C1N=C2c3c(sc4c3CCCC4)N=CN2C1N=Nc1ccc(Cl)cc1 (centres undefined) : what is it?
// result 26.2 µM

###

# System: A498 renal
# run description: NCI tumour cell line growth inhibition, 48 h
Listing: TGI of selected compounds

Some solved entries appear below for comparison.
compound	experimental value
CC1=NC(=Cc2ccc(Cl)cc2)C(=O)N1n1c(-c2ccccc2)nc2ccccc2c1=O	63.4 µM
N#Cc1c(-c2ccccc2)c(C#N)c(=O)n(NS(=O)(=O)c2ccccc2)c1O	> 100 µM
COc1ccc(/C=C/C(=O)NCC(NC(=O)/C=C/c2ccc(OC)c(OC)c2)C(=O)O)cc1OC (stereo not given)	> 100 µM
CC(=O)NNC=N/C(C#N)=C(\N)C#N	> 100 µM
Cc1ccc(S(=O)(=O)N/N=C2\C(=O)C3CC2C(Cl)C3Cl)cc1 (stereo not given)	> 100 µM

// query Which TGI is reported with A498 renal for this entry: CCN(CC)c1ccc(/C=C/C2=NN(c3cccc(S(=O)(=O)O)c3)C3(C2)C(Cl)C(=O)N3c2nc3ccccc3s2)cc1 (stereo not given) ?
// result 24.8 µM

// query What about this compound? CCCOc1ccc(/C=C/c2cc(OC)c(OC)c(OC)c2)cc1
// result > 22.6 µM

###

# System: MDA-MB-231 breast
# run description: NCI tumour cell line growth inhibition, 48 h
// reported TGI for each item listed
Supply the numeric figure in µM, leaving out any unit text.

Some solved entries appear below for comparison.
molecule	experimental value
Nc1cc(N)c2nc(-c3ccccc3)c(Nc3ccc(F)cc3)nc2c1	30.5
COC(=O)c1c2c(c(C)[n+]([O-])c1C)C(=O)C=C(NCc1ccc(Cl)cc1)C2=O	3.62
Cc1sc2ncnc(Sc3nc4ccccc4[nH]3)c2c1C	94.3
Clc1nc(Cl)c2ncn(C/C=C\Cn3cnc4c(Cl)nc(Cl)nc43)c2n1	5.95
Oc1cn(-c2ccc(Cl)cc2)nc1-c1nnc(Nc2ccccc2)o1	27.4
CCCCCCN1C(=O)/C(=c2\sc3n(c2=O)C2C(NN=3)N(CC)C(=O)N2CC)c2ccccc21 (configuration not stated)	10.4
N#Cc1nc(-c2cccc(Br)c2)cc(-c2ccc(Nc3nc(N4CCCCC4)nc(N4CCCCC4)n3)cc2)c1N	3.21
CCOP(=O)(CS(C)=O)O[C@@H]1C[C@H](C)CC[C@H]1C(C)C (some centres not stated)	12.8
COc1ccc2c(c1)[nH]c(=O)c1c3cccnc3cn21	25.4
NN/C(=N\S(=O)(=O)c1cc(Cl)c(Oc2ccc([N+](=O)[O-])cc2Cl)c(Cl)c1)Nc1ccc(Cl)cc1	39.9

// query Find the recorded TGI belonging to CCOC(=O)c1cc2c(cc1Cl)SC(N(c1ccc(F)cc1)S(=O)(=O)c1ccc(OC)cc1)=NS2(=O)=O and report it.
// result 53.5

// query Please do the same for CC1(C)CCSC(/C=C/c2ccccc2)=N1 as well.
// result 30.6

// query // same read-out, input: c1ccc(-c2nc(Nc3ccc(-c4nc5ccccc5[nH]4)cc3)nc(N3CCOCC3)n2)cc1
// result 3.48

// query Continue with CCCCCCCCCCCCCCCCCCOc1ccccc1CC(=O)OCC[N+](C)(C)C
// result 3.21

// query Another molecule to check: COC(=O)C1=CN(CC2=CC(=O)C(C)=CC2=O)C=C(C(=O)OC)C1c1cccc(OC)c1OC
// result 28.9

// query Now the same for CC(C)=CCC/C(C)=C/Cc1cc(/C=C/c2cc(O)c(CC=C(C)C)c(O)c2)cc(O)c1O
// result 23.8
